The measurements presented in this section are drawn from ChEMBL document CHEMBL3045685.

Test system: Nilaparvata lugens
TEST: In vivo insecticidal activity against fifth-instar larval stage of Nilaparvata lugens (brown planthopper) in second semester rice seedlings assessed as insect mortality at 500 mg/L treated for 5 secs before larval infestation measured after 72 hr
Format: functional
QUANTITY KIND: mortality at 500 µg/mL

Below: 5 compounds and their reported mortality at 500 µg/mL.
What value of mortality at 500 µg/mL on Nilaparvata lugens does "CCN(Cc1ccc(Cl)nc1)/C(=C/[N+](=O)[O-])NC" have?
100%

What value of mortality at 500 µg/mL on Nilaparvata lugens does "CCN(Cc1ccc(Cl)nc1)C1=C([N+](=O)[O-])CN(Cc2ccc(C)cc2)CN1C" have?
100%

What value of mortality at 500 µg/mL on Nilaparvata lugens does "CCN(Cc1ccc(Cl)nc1)C1=C([N+](=O)[O-])CN(Cc2ccccn2)CN1C" have?
100%

What value of mortality at 500 µg/mL on Nilaparvata lugens does "CCN(Cc1ccc(Cl)nc1)C1=C([N+](=O)[O-])CN(C2CCCCC2)CN1C" have?
≥ 90%

What value of mortality at 500 µg/mL on Nilaparvata lugens does "CCN(Cc1ccc(Cl)nc1)C1=C([N+](=O)[O-])CN(c2ccccc2OC)CN1C" have?
100%

Others:
What value of mortality at 500 µg/mL on Nilaparvata lugens does CCN(Cc1ccc(Cl)nc1)C1=C([N+](=O)[O-])CN(C(C)c2ccc(C)cc2)CN1C (racemic) have?
≥ 90%

What value of mortality at 500 µg/mL on Nilaparvata lugens does "CCN(Cc1ccc(Cl)nc1)C1=C([N+](=O)[O-])CN(c2ccc(F)cc2)CN1C" have?
100%

What value of mortality at 500 µg/mL on Nilaparvata lugens does "CCN(Cc1ccc(Cl)nc1)C1=C([N+](=O)[O-])CN(CCc2ccccc2)CN1C" have?
100%
